# experimental system: secreted soluble GalNAc-T2 (Homo sapiens)
# Construct: 6xHis (N); thrombin cleavage site (N); T7 antibody site (N); made in house; host or cells: baculovirus (pAcGP67A), High Five insect cells
# Sequence (Q10471 52-571 limits assumed): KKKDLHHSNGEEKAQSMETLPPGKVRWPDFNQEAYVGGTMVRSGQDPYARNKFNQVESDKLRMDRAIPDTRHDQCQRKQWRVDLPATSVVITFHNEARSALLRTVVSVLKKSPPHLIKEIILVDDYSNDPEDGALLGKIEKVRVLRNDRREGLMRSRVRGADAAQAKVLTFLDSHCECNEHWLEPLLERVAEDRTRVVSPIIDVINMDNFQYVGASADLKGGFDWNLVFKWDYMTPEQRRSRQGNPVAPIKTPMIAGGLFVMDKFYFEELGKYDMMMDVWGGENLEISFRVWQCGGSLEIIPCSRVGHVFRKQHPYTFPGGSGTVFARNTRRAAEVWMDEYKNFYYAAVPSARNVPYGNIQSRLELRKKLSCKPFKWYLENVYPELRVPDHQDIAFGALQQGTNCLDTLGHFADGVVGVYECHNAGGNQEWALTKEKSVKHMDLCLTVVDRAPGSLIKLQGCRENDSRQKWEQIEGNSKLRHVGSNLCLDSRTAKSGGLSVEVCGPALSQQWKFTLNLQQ
# experiment: Inhibition of secreted soluble GalNAc-T2 (sT2) binding to GalNAc-MUC1 glycopeptide, ELISA
endpoint label: IC50

Solved cases (5 shown):
compound	IC50
CC(=O)N[C@H]1[C@@H](Oc2ccc([N+](=O)[O-])cc2)O[C@H](CO)[C@H](O)[C@@H]1O	> 10 mM
CC(=O)N[C@H]1[C@@H](OP(=O)(O)OP(=O)(O)OC[C@H]2O[C@@H](n3ccc(=O)[nH]c3=O)[C@H](O)[C@@H]2O)O[C@H](CO)[C@H](O)[C@@H]1O	65 mM
CC(=O)N[C@H]1[C@@H](Oc2ccccc2[N+](=O)[O-])O[C@H](CO)[C@H](O)[C@@H]1O	7 mM
CC(=O)N[C@H]1[C@@H](OCc2ccccc2)O[C@H](CO)[C@H](O)[C@@H]1O [BzlαGalNAc, benzyl-N-acetyl-alpha-D-galactosaminide]	15 mM
OC[C@H]1O[C@@H](O[C@H]2[C@H](O)[C@@H](O)C(O)O[C@@H]2CO)[C@H](O)[C@@H](O)[C@H]1O (stereo partly drawn)	> 100 mM

Please find the next compound below.
Request: So what IC50 did CC(=O)N[C@H]1C(O)O[C@H](CO)[C@H](O)[C@@H]1O (stereo partly drawn) get with secreted soluble GalNAc-T2 (Homo sapiens)?
Response: 15 mM
